test system: HPPD polypeptides (wild-type SEQ ID NO:1 and mutants); conditions: in the presence of mesotrione (MST), 60 μM inhibitor, high substrate concentration; total change in signal normalized to no inhibitor
# Residual turnover per entry
Numeric answer only, unit % assumed.

Consider the worked cases shown below.
* 7 (protein, mutant HPPD polypeptide) MADLYENPMGLMGFEFIEFASPTPGTLEPIFEIMGFTKVATHRSKNVHLYRQGEINLILNNEPNSIASYFAAEHGPSVCGMAFRVKDSQKAYNRALELGAQPIHIDTGPMELNLPAIKGIGGAPLYLIDRFGEGSSIYDIDFVYLEGVERNPVGAGLKVIDHLTHNVYRGRMVYWANFYEKLFNFREARYFDIKGEYTGLTSKAMSAPDGMIRIPLNEESSKGAGQIEEFLMQFNGEGIQHVAFLTDDLVKTWDALKKIGMRFMTAPPDTYYEMLEGRLPDHGEPVDQLQARGILLDGSSVEGDKRLLLQIFSETLMGPVFFEFIQRKGDDGFGPDSFKALFESIERDQVRRGVLTAD | 85
* 8 (protein, mutant HPPD polypeptide) MADLYENPMGLMGFEFIEFASPTPGTLEPIFEIMGFTKVATHRSKNVHLYRQGEINLILNNEPNSIASYFAAEHGPSVCGMAFRVKDSQKAYNRALELGAQPIHIDTGPMELNLPAIKGIGGAPLYLIDRFGEGSSIYDIDFVYLEGVERNPVGAGLKVIDHLTHNVYRGRMVYWANFYEKLFNFREARYFDIKGEYTGLTSKAMSAPDGMIRIPLNEESSKGAGQIEEFLMQFNGEGIQHVAFLTDDLVKTWDALKKIGMRFMTAPPDTYYEMLEGRLPDHGEPVDQLQARGILLDGSSVEGDKRLLLQIFSETLMGPVFFEFIQRKGDDGFGPDSFKVLFESIERDQVRRGVLTAD | 85
* 29 (protein, mutant HPPD polypeptide) MADLYENPMGLMGFEFIEFASPTPGTLEPIFEIMGFTKVATHRSKNVHLYRQGEINLILNNEPNSIASYFAAEHGPSVCGMAFRVKDSQKAYNRALELGAQPIHIDTGPMELNLPAIKGIGGAPLYLIDRFGEGSSIYDIDFVYLEGVERNPVGAGLKVIDHLTHNVYRGRMVYWANFYEKLFNFREARYFDIKGEYTGLTSKAMSAPDGMIRIPLNEESSKGAGQIEEFLMQFNGEGIQHVAFLTDDLVKTWDALKKIGMRFMTAPSDSYYEMLEGRLPDHGEPVDQLQARGILLDGSSVEGDKRLLLQIFSETLMGPVFFEFIQRKGDDGFGPHSFKVLFESVERDQVRRGVLTAD | 95

Inquiry: Supply recorded Residual turnover for 22 (protein, mutant HPPD polypeptide) MADLYENPMGLMGFEFIEFASPTPGTLEPIFEIMGFTKVATHRSKNVHLYRQGEINLILNNEPNSIASYFAAEHGPSVCGMAFRVKDSQKAYNRALELGAQPIHIDTGPMELNLPAIKGIGGAPLYLIDRFGEGSSIYDIDFVYLEGVERNPVGAGLKVIDHLTHNVYRGRMVYWANFYEKLFNFREARYFDIKGEYTGLTSKAMSAPDGMIRIPLNEESSKGAGQIEEFLMQFNGEGIQHVAFLTDDLVKTWDALKKIGMRFMTAPPDTYYEMLEGRLPDHGEPVDQLQARGILLDGSSVEGDKRLLLQIFSETLMGPVFFEFIQRKGDDGFGPHSFKVLFESIERDQVRRGVLTAD here.
Reply text: 99
